Attribution: ChEMBL document CHEMBL3507680

- Protocol details: Human HepG2 cell viability assay in 384 well format
- Format: toxicity, cell-based
- Set-up: dose 125 nL, time 70.5 hour; concentration not given beside the values
- Measurement parameters: HepG2 cells, read-out: Inhibition
Listing of entries alongside the reported cytotoxicity at 70.5 h.
Hi! Could you send only the number? It should be in %, unit omitted.

                                   molecule        observation_type  reported_result
0  Cc1ccccc1C(C)NC(=O)CN1CCN(Cc2cccs2)CC1 (centres undefined)  cytotoxicity at 70.5 h            0.186

The record that follows has no cytotoxicity at 70.5 h shown yet.
Input: Name the recorded cytotoxicity at 70.5 h of the item CNC(=O)C(C)CNC(=O)c1coc(COc2cccc(F)c2F)n1 (centres undefined) in your answer.
Output: -14.8

###

Each entry below lists one item and its recorded cytotoxicity at 70.5 h value.
- Protocol details: Human HepG2 cell viability assay in 384 well format
- Assay type: toxicity, cell-based
- Set-up: dose 125 nL, time 70.5 hour; concentration not given beside the values
- Measurement parameters: HepG2 cells, read-out: Inhibition
Numeric only. Scale: %

Known cytotoxicity at 70.5 h results, listed for orientation:
>>> print(df.to_string())
                             molecule  unit_string  reported_result
0      CCc1cccc(OCCn2cccc(C#N)c2=O)c1            %            -8.55
1  CCN(Cc1ccco1)C(=O)NCc1nnc2n1CCCCC2            %             5.47

Input: Respond only with cytotoxicity at 70.5 h recorded for CC(=O)N1CCCC1c1ccnc(Nc2cncnc2)n1 (centres undefined)
Output: -15.4

Input: Provide only the value of recorded cytotoxicity at 70.5 h for "c1cncc(COCc2nnc3n2CCN(CC2CC2)C3)c1"
Output: 0.791

Input: Return cytotoxicity at 70.5 h for the following molecule: "Nc1nc2c(c(NCc3ccncc3)n1)CCCC2"
Output: 0.39

Input: Kindly indicate its recorded cytotoxicity at 70.5 h. Item: "Cc1nn(C)c2c(NC3CCCC3)nc(C3CC3)nc12"
Output: -7.15

Input: Input "CN1CCN(C2CCN(CCOc3cccc(Cl)c3)CC2)C1=O" , output reported cytotoxicity at 70.5 h.
Output: -7.02

Input: For Cn1ccnc1CN1CCCC2(CCN(CC3CCCO3)CC2)C1 (centres undefined) , write its cytotoxicity at 70.5 h.
Output: 4.14

Input: Complete the entry with cytotoxicity at 70.5 h for O=C(C1CC1)N1CCCC1c1nnc2n1CCCCC2 (centres undefined)
Output: 0.772

Input: Report cytotoxicity at 70.5 h, nothing else, for this molecule: "O=C(O)c1ccnc(-c2ccnc(NCCc3nc4c(s3)CCC4)n2)c1"
Output: -6.73

###

- Protocol details: Human HepG2 cell viability assay in 384 well format
- Format: toxicity, cell-based
- Set-up: dose 125 nL, time 70.5 hour; concentration not given beside the values
- Measurement parameters: HepG2 cells, read-out: Inhibition
We begin with a simple list: items and their reported cytotoxicity at 70.5 h.
Hi! Could you send only the number? It should be in %, unit omitted.

Consider the worked cases shown below.
>>> df
                                   compound  unit_string  reported_result
0  O=C([C@@H]1CCO[C@@H]2CCN(Cc3ccc(F)cc3)C[C@H]21)N1CCCCO1            %            -24.4
1  Cn1c(=O)c2cc(C(=O)NCCOCC(F)(F)F)ccc2n(C)c1=O            %             25.9
2  Cc1cnn(CC2CN(Cc3nnc(-c4ccccc4)o3)CCO2)c1 (stereo unspecified)            %            -8.48
3            Cc1ccc(CS(=O)(=O)NCc2ccco2)cc1            %            -4.19
4  c1cnc2[nH]c(C3CCCNC3)c(CN3CCCOCC3)c2c1 (stereo unspecified)            %            -5.16

Input: Specify measured cytotoxicity at 70.5 h for O=C(NCC(c1ccccc1)N1CCOCC1)Nc1cn[nH]c1 (stereo unspecified) .
Output: 1.36
